These measurements were taken from ChEMBL document CHEMBL4251647.

- Test system: K562
- ASSAY_NOTES: Cytotoxicity against human K562 cells assessed as inhibition of cell viability at 25 ug/ml after 72 hrs by MTT assay relative to control
- Format: functional
- RECORDED_CONDITIONS: K562, 72 h
Reported inhibition at 25 µg/mL values for a set of molecules

SMILES_CODE	inhibition at 25 µg/mL [%]
COc1ccc(-c2cs/c(=N/N=C/c3ccc(C(F)(F)F)cc3)n2C)cc1	50.4
FC(F)(F)c1ccc(/C=N/Nc2nc(-c3ccc(Cl)c(Cl)c3)cs2)cc1	47.8
Fc1ccc(-c2csc(N/N=C/c3ccc(C(F)(F)F)cc3)n2)cc1	61.6
FC(F)(F)c1ccc(/C=N/Nc2nc(-c3ccc(Br)cc3)cs2)cc1	25
Cc1sc(N/N=C/c2ccc(C(F)(F)F)cc2)nc1-c1ccccc1	25
COc1ccc(-c2csc(N/N=C/c3ccc(C(F)(F)F)cc3)n2)cc1	61.5
FC(F)(F)c1ccc(/C=N/Nc2nc(-c3ccc(Cl)cc3)cs2)cc1	50.5
Fc1ccc(-c2cs/c(=N/N=C/c3ccc(C(F)(F)F)cc3)n2-c2ccccc2)cc1	59.1
FC(F)(F)c1ccc(/C=N/Nc2nc(-c3cccc4ccccc34)cs2)cc1	44.9
COc1ccc(-c2cs/c(=N/N=C/c3ccc(C(F)(F)F)cc3)n2-c2ccccc2)cc1	59.2

* * *

- System: Erythrocyte
- ASSAY_NOTES: Hemolytic activity in human erythrocytes after 1 hr by spectrophotometric method
- Assay type: ADME, cell-based
READOUT_LABEL: EC50

SMILES_CODE	VALUE_MEASURED
O=[N+]([O-])c1ccc(-c2csc(N/N=C/c3ccc(C(F)(F)F)cc3)n2)cc1	> 250 µg/mL
FC(F)(F)c1ccc(/C=N/Nc2nc(-c3ccc(Cl)c(Cl)c3)cs2)cc1	> 250 µg/mL
O=[N+]([O-])c1cccc(-c2csc(N/N=C/c3ccc(C(F)(F)F)cc3)n2)c1	> 250 µg/mL
Cn1c(-c2ccc([N+](=O)[O-])cc2)cs/c1=N/N=C/c1ccc(C(F)(F)F)cc1	> 250 µg/mL
COc1ccc(-c2csc(N/N=C/c3ccc(C(F)(F)F)cc3)n2)cc1	> 250 µg/mL
FC(F)(F)c1ccc(/C=N/Nc2nc(-c3ccc(Cl)cc3Cl)cs2)cc1	> 250 µg/mL
N=C(S)N/N=C/c1ccc(C(F)(F)F)cc1	> 250 µg/mL
CNC(=S)N/N=C/c1ccc(C(F)(F)F)cc1	> 250 µg/mL

* * *

Reported IC50 values for a set of molecules
- Tested on: K562
- ASSAY_NOTES: Cytotoxicity against human K562 cells assessed as inhibition of cell viability after 24 hrs by MTT assay
- Type: functional, cell-based
- RECORDED_CONDITIONS: K562, 24 h

SMILES_CODE	IC50
FC(F)(F)c1ccc(/C=N/Nc2nc(-c3ccc(Cl)cc3Cl)cs2)cc1	> 60.1 µM
N=C(S)N/N=C/c1ccc(C(F)(F)F)cc1	> 101 µM

* * *

- System: K562
- ASSAY_NOTES: Cytotoxicity against human K562 cells assessed as inhibition of cell viability after 72 hrs by MTT assay
- Assay type: functional, cell-based
- RECORDED_CONDITIONS: K562, 72 h
READOUT_LABEL: IC50

SMILES_CODE	VALUE_MEASURED
COc1ccc(-c2csc(N/N=C/c3ccc(C(F)(F)F)cc3)n2)cc1	> 66.2 µM
FC(F)(F)c1ccc(/C=N/Nc2nc(-c3ccc(Cl)c(Cl)c3)cs2)cc1	> 60.1 µM
Cn1c(-c2ccc([N+](=O)[O-])cc2)cs/c1=N/N=C/c1ccc(C(F)(F)F)cc1	> 61.4 µM

* * *

- Tested on: HEp-2
- ASSAY_NOTES: Cytotoxicity against human Hep2 cells assessed as inhibition of cell viability at 25 ug/ml after 72 hrs by MTT assay relative to control
- Type: functional
- RECORDED_CONDITIONS: HEp-2, 72 h
Reported inhibition at 25 µg/mL values for a set of compounds

SMILES_CODE	inhibition at 25 µg/mL, %
FC(F)(F)c1ccc(/C=N/Nc2nc(-c3ccc(Cl)cc3)cs2)cc1	33
Cc1ccc(-c2csc(N/N=C/c3ccc(C(F)(F)F)cc3)n2)cc1	59.9
FC(F)(F)c1ccc(/C=N/N=c2/scc(-c3ccc(Cl)cc3)n2-c2ccccc2)cc1	58.7
Cn1c(-c2ccc([N+](=O)[O-])cc2)cs/c1=N/N=C/c1ccc(C(F)(F)F)cc1	84.8
FC(F)(F)c1ccc(/C=N/Nc2nc(-c3ccc(Cl)cc3Cl)cs2)cc1	96.7
